assay: 13-week IV toxicity study in rats with 4-week recovery (with plasma exposure); settings: rat, 3 mg/kg, Cmax, 3 mg/kg daily IV bolus, Day 1
MEASURED_ENDPOINT: Cmax (ng/mL)
Please state the figure in ng/mL; there is no need to write the unit.

Recorded result, CS(=O)(=O)c1cccc(C[C@H](NC(=O)c2c(Cl)cc3c(c2Cl)CCN(C(=O)c2ccc4ccoc4c2)C3)C(=O)O)c1 , Cmax: 305

----------
experiment: Acute toxicity, single dose IV in rats; conditions: rat, in vivo
MEASURED_ENDPOINT: NOAEL (mg/kg)
The figure you give is taken to be in mg/kg; do not add the unit.

The compound CS(=O)(=O)c1cccc(C[C@H](NC(=O)c2c(Cl)cc3c(c2Cl)CCN(C(=O)c2ccc4ccoc4c2)C3)C(=O)O)c1 [Compound 12] showed NOAEL equal to 10
